Molecular target: T1, human Protein S (human, UniProt P07225 42-676)
T1 construct: Called 'full length Protein S' / 'human full-length Protein S'; It was coated on plates (ELISA), Eu-labeled (LANCE) or immobilized on a chip (Biacore); also called PS; full length Protein S
T1 sequence: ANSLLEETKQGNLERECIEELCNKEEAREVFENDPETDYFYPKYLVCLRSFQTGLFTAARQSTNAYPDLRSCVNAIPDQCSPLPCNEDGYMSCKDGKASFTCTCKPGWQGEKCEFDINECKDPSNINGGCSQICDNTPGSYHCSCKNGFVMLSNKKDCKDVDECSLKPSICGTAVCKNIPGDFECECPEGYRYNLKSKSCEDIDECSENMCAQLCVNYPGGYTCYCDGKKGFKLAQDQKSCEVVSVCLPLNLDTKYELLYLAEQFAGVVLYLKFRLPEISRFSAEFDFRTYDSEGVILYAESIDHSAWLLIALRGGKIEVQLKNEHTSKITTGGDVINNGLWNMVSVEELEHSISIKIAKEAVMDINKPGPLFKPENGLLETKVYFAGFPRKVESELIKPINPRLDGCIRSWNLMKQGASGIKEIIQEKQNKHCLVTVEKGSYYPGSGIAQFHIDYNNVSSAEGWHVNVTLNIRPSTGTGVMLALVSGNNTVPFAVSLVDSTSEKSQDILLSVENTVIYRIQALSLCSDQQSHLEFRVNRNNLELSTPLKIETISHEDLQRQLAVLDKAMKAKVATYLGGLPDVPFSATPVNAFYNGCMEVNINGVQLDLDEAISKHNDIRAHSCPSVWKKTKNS
Experiment: Biacore and LANCE IC50
assay_endpoint: binding result

Reference set, count: 6
binder	recorded_measurement
Ac-EYYVSAGWYDYNTDTYYEFT-NH2 [JBS3314]	binds
Ac-EYYVSAGWYDYNNDIYYEFE-NH2 [JBS3218]	binds
Ac-YVEVSAGWYDYNTDTYSEFW-NH2 [JBS3281]	binds
Ac-ESYVSAGWYDYNTDTYYEFF-NH2 [JBS3223]	binds
Ac-YGIVSAGWYDMNNDYYFEFY-NH2 [JBS3258]	binds
Ac-EYYVEAGWYEYNTDNYYPFE-NH2 [JBS3236]	binds

Could you now look at the following binder, please?
Problem: I have this binder here, Ac-EYYVSAGWYDYMTDTYTEFE-NH2 [JBS3235] , and I need its recorded binding result.
Solution: binds

From: patent US20150246947A1
